Target: human subtype 5 somatostatin receptor (Homo sapiens)
Ki strictly less than 30 nM = 1. Otherwise 0.

Worked examples follow.
>>> print(df.to_string())
                             moleculesmiles                            targetorsystem  labelclass
0  CCOc1cc(CN2CCC(Nc3nc(-c4ccccc4)no3)CC2)ccc1Cl  human subtype 5 somatostatin receptor (Homo sapiens)           0
1  CCOc1cc(CN2CCC(Nc3ncc(-c4ccccc4)o3)CC2)cc(OCC)c1C  human subtype 5 somatostatin receptor (Homo sapiens)           1
2  CCOc1cc(CN2CCC(Nc3nc(-c4ccc(Cl)cc4)co3)CC2)cc(OCC)c1Cl  human subtype 5 somatostatin receptor (Homo sapiens)           1

Query: Identify whether the compound CC(C)Oc1cc(CN2CCC(Nc3nc4ccccc4n3C)CC2)cc(OC(C)C)c1 records Ki below 30 nM.
Result: 0

---

Biological target: human subtype 5 somatostatin receptor (Homo sapiens, UniProt P35346)
Sequence (P35346 whole entry): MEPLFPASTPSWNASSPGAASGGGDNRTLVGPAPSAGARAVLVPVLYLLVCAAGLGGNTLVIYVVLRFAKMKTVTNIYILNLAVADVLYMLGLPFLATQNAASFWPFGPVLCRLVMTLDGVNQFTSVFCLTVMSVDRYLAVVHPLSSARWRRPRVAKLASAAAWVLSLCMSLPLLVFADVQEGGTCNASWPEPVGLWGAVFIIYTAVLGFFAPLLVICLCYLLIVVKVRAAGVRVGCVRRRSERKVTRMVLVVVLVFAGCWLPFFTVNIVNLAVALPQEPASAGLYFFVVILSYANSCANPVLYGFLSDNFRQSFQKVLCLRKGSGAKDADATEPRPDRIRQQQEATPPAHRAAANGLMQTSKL
valueType: pKi
Answers are plain numbers, as −log10 of the molar value.

Give pKi for each listed item.
1. CCOc1cc(CN2CCC(Nc3nc(-c4ccccc4)co3)CC2)cc(OCC)c1-c1ccc(F)cc1
2. CCOc1cc(CN2CCC(Nc3nc(-c4cccc(OC)c4)co3)CC2)cc(OCC)c1-c1ccc(F)cc1
3. COc1ccc(CN2CCC(Nc3nc(-c4ccccc4)no3)CC2)cc1OCC(C)C
4. CCOc1cc(CN2CCC(Nc3nc4ccccc4n3C)CC2)ccc1Cl
5. CCOc1cc(CN2CCC(Nc3nc(-c4ccc(C(F)(F)F)cc4)co3)CC2)cc(OCC)c1-c1ccc(F)cc1
6. CCOc1cc(CN2CCC(Nc3ncc(-c4ccccc4)o3)CC2)cc(OCC)c1Cl

Result:
7.57
7.32
6.94
7.38
7.14
7.92

Give pKi for each listed item.
1. CCOc1cc(CN2CCC(Nc3nc(-c4ccc(F)cc4)co3)CC2)cc(OCC)c1F
2. CCOc1cc(CN2CCC(Nc3ncc(-c4ccc(OC)cc4)o3)CC2)cc(OCC)c1-c1ccc(F)cc1

Result:
1. 7.59
2. 7.34
